Source listed as paper PMC3669292.

assay: Directional permeability of drug analogues across primary BBMEC monolayers (in vitro BBB model); format: in vitro ADME, bovine; settings: bovine, pH 7.4; basolateral-to-apical, donor 10 µM, 0–90 min, mean ± SD, n = 3; read-out: Apparent Permeability Coefficient B → A
READOUT NAME: Papp B→A at 10 µM (×10⁻⁶ cm/s)

1) Cc1ccc(NC(=O)c2ccc(CN3CCN(C)CC3)cc2)cc1Nc1nccc(-c2cccnc2)n1 63.9
2) Cc1ccc(NC(=O)c2ccc(CN3CC[C@H](N(C)C)C3)c(C(F)(F)F)c2)cc1Nc1nccc(-c2cncnc2)n1 94.5
